Test system: HeLa
Assay: Primary qHTS to identify gynecologic anti-cancer compounds using libraries of approved drugs and bioactive compounds (AID 1345084); also: nearly all actives have a fitted effect of over 55% in size
Conditions: Gynecologic cancer cell panel viability, ATPlite luminescence, 48 h; series mostly up to 57.5 µM
Records with an inconclusive call do not appear. Calls of active or inactive are those of the source. Calls follow the shape of the dose curve; as a rule, active = well fitted cell-killing curve with a large enough effect; inconclusive = small, poorly fitted or top-dose-only effect, or effect the other way; inactive = flat fitted curve, though single readings scatter.
Possible outcomes: TRUE = active, FALSE = inactive

Compound	System under test	Label value
O=C1c2ccc(Nc3ccc(F)cc3F)cc2CCc2ccc(OCC(O)CO)cc21 (stereo not given)	HeLa	FALSE
Cn1cc(-c2ccc(S(=O)(=O)n3ccc(/C=C/C(=O)Nc4ccccc4N)c3)cc2)cn1	HeLa	TRUE
O=C(Nc1ccccc1)N1CCN(c2nc(-c3ccccc3)ns2)CC1	HeLa	FALSE
Cc1nnc(-c2ccc(-c3ccc(C(=O)Nc4ccc(O)c(N5CCN(C)CC5)c4)cc3)c(C)c2)o1	HeLa	FALSE
CCN(CCNC(=O)Nc1ccccc1Br)c1cccc(C)c1	HeLa	FALSE
